Cited source for all entries: patent US20080050375A1

- target-desc: T1, human TGF-beta 3 (RDI, Cat # RDI-1036/CF) (human, UniProt P10600 301-412)
- T1 construct: Bought recombinant protein; also called TGF-β3; TGF-p3
- T1 sequence (looked up): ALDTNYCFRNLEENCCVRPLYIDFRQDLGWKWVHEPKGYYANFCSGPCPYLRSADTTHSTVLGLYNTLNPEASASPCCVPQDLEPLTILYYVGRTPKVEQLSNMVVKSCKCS
- procedure-summary: ratio of Biacore Kd for TGF-β3 to Kd for TGF-β1
measurement-label: Specificity (Kd, β3/Kd, β1) (fold)
Respond numerically; units are fold and should not be typed.

[Q] Which measured Specificity (Kd, β3/Kd, β1) value corresponds to mAb 23A3 (antibody, IgG4, V domains shown) VH: QVQLVQSGAEVKKPGASVKVSCKASGYDFTDYNMVWVRQAPGQGLEWMGSIYPYDGETGYNQKFKSRVTMTTDTSTSTAYMELRSLRSDDTAVYYCARGYRAFEYWGQGTLVTVSS VL: DIQMTQSPSSLSASVGDRVTITCRASSSVPYMHWYQQKPGKAPKLLIYATSNPAYGVPSRFSGSGSGTDFTLTISSLQPEDFATYYCQQWDLNPPAFGQGTKLEIK ?
[A] 1050

[Q] Which measured Specificity (Kd, β3/Kd, β1) value corresponds to mAb DM4 (antibody, human IgG4 S228P, kappa, V domains shown, Full-length IgG4 antibody; also called LA307-DM4) VH: QVQLVQSGAEVKKPGASVKVSCKASGYDFTDYNIHWVRQAPGQGLEWMGYIYPYDGETGYNQKFKSRVTMTTDTSTSTAYMELRSLRSDDTAVYYCARGYRWLAYWGQGTLVTVSS VL: DIQMTQSPSSLSASVGDRVTITCRASSSVSYMHWYQQKPGKAPKPLIYATSNLAYGVPSRFSGSGSGTDFTLTISSLQPEDFATYYCQQWDLNPPAFGQGTKLEIKR ?
[A] 621

[Q] Which measured Specificity (Kd, β3/Kd, β1) value corresponds to mAb 21D1 (antibody, human IgG4 S228P, kappa, V domains shown, Full-length IgG4 antibody; also called LA307-21D1) VH: QVQLVQSGAEVKKPGASVKVSCKASGYTFTDYNIHWVRQAPGQGLEWMGYIYPYDGETGYNQKFKSRVTMTTDTSTSTAYMELRSLRSDDTAVYYCARGYRWFAYWGQGTLVTVSS VL: DIQMTQSPSSLSASVGDRVTITCRASSSVPYMHWFQQKPGKAPKSLIYATSNPAYGVPSRFSGSGSGTDFTLTISSLQPEDFATYYCQQWDLNPPAFGQGTKLEIKR ?
[A] 9800

[Q] Which measured Specificity (Kd, β3/Kd, β1) value corresponds to mAb DM7 (antibody, IgG4, V domains shown) VH: QVQLVQSGAEVKKPGASVKVSCKASGYDFTDYNMHWVRQAPGQGLEWMGYIYPYDGETGYNQKFKSRVTMTTDTSTSTAYMELRSLRSDDTAVYYCARGYRWLYYWGQGTLVTVSS VL: DIQMTQSPSSLSASVGDRVTITCRASSSVSYMHWYQQKPGKAPKPLIYATSNLAKGVPSRFSGSGSGTDFTLTISSLQPEDFATYYCQQWDLNPPAFGQGTKLEIK ?
[A] 2320
